systemUnderTest: LecA (Pseudomonas aeruginosa)
Construct: made in house
Sequence (Q05097 whole entry): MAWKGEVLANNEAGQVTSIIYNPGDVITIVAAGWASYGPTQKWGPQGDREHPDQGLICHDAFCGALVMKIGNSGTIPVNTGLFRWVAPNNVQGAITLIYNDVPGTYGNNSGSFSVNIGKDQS
procedureDetails: Isothermal titration microcalorimetry (ITC) with LecA
Type: binding
conditions: ITC average ± s.d., 25 °C
Consider the following compounds and their measured -TΔS (supplement) readings.
Lab book: enter the figure in kcal/mol, no units written.

smilesentry=COc1ccc(NC(=O)CCc2ccc(O[C@@H]3O[C@H](CO)[C@H](O)[C@H](O)[C@H]3O)cc2)cn1 systemundertest="LecA (Pseudomonas aeruginosa)" obsvalue=3.8
smilesentry=Cc1ccc(NC(=O)CCc2ccc(O[C@@H]3O[C@H](CO)[C@H](O)[C@H](O)[C@H]3O)cc2)cc1S(=O)(=O)O systemundertest="LecA (Pseudomonas aeruginosa)" obsvalue=3.2

# evaluate next
# input # return recorded -TΔS (supplement) for input `O=C(CCc1ccc(O[C@@H]2O[C@H](CO)[C@H](O)[C@H](O)[C@H]2O)cc1)Nc1ccc(CCc2ccc(NC(=O)CCc3ccc(O[C@@H]4O[C@H](CO)[C@H](O)[C@H](O)[C@H]4O)cc3)cc2S(=O)(=O)O)c(S(=O)(=O)O)c1`
# output 9.4

---

procedureDetails: Thermodynamic solubility in TBS/Ca2+ buffer
Assay type: physicochemical
conditions: pH 7.4, aqueous buffer, thermodynamic from solid; TBS/Ca2+ buffer w/o DMSO, N=1; read-out: Solubility S (thermodynamic)
metric: solubility thermodynamic

# input Dear colleague, please send me the reported solubility thermodynamic for `O=C(CCc1ccc(O[C@@H]2O[C@H](CO)[C@H](O)[C@H](O)[C@H]2O)cc1)Nc1ccc(CCc2ccc(NC(=O)CCc3ccc(O[C@@H]4O[C@H](CO)[C@H](O)[C@H](O)[C@H]4O)cc3)cc2S(=O)(=O)O)c(S(=O)(=O)O)c1` when you can.
# output > 1500 µM

---

procedureDetails: In vivo pharmacokinetic study in mice
Set-up: species or system CD-1 mice
conditions: male, CD-1, mouse, urine, iv, 1 mg kg^−1 i.v.
metric: Cmax (µM)
Write it as a number; the unit µM goes unstated.

# input Look up Cmax of `O=C(CCc1ccc(O[C@@H]2O[C@H](CO)[C@H](O)[C@H](O)[C@H]2O)cc1)Nc1ccc(OCCOc2ccc(NC(=O)CCc3ccc(O[C@@H]4O[C@H](CO)[C@H](O)[C@H](O)[C@H]4O)cc3)cn2)nc1` and report it.
# output 63

# input Query Cmax for `O=C(CCc1ccc(O[C@@H]2O[C@H](CO)[C@H](O)[C@H](O)[C@H]2O)cc1)Nc1ccc(CCc2ccc(NC(=O)CCc3ccc(O[C@@H]4O[C@H](CO)[C@H](O)[C@H](O)[C@H]4O)cc3)cc2S(=O)(=O)O)c(S(=O)(=O)O)c1`
# output 13.4

---

Entries and their fraction unbound at 2 h, 1 µM values follow.
procedureDetails: Plasma protein binding (rapid equilibrium device), human plasma
Assay type: in vitro ADME
conditions: both sexes, human, plasma, read-out: PPB Human (converted)
Note: the reply should be a number with no unit written.

molecule=O=C(CCc1ccc(O[C@@H]2O[C@H](CO)[C@H](O)[C@H](O)[C@H]2O)cc1)Nc1ccc(OCCOc2ccc(NC(=O)CCc3ccc(O[C@@H]4O[C@H](CO)[C@H](O)[C@H](O)[C@H]4O)cc3)cn2)nc1 obsvalue=0.005
molecule="O=C(/C=C/c1ccc(O[C@@H]2O[C@H](CO)[C@H](O)[C@H](O)[C@H]2O)cc1)Nc1ccc(OCCOc2ccc(NC(=O)/C=C/c3ccc(O[C@@H]4O[C@H](CO)[C@H](O)[C@H](O)[C@H]4O)cc3)cc2)cc1 [Compound D1]" obsvalue=0.004
molecule="O=C(CCc1ccc(O[C@@H]2O[C@H](CO)[C@H](O)[C@H](O)[C@H]2O)cc1)Nc1ccc(OCCOc2ccc(NC(=O)CCc3ccc(O[C@@H]4O[C@H](CO)[C@H](O)[C@H](O)[C@H]4O)cc3)cc2)cc1 [Compound D2]" obsvalue=0.005

# input State its fraction unbound at 2 h, 1 µM: `O=C(CCc1ccc(O[C@@H]2O[C@H](CO)[C@H](O)[C@H](O)[C@H]2O)cc1)Nc1ccc(CCc2ccc(NC(=O)CCc3ccc(O[C@@H]4O[C@H](CO)[C@H](O)[C@H](O)[C@H]4O)cc3)cc2S(=O)(=O)O)c(S(=O)(=O)O)c1`
# output 0.62
